MEASUREMENT_TARGET: beta-klotho
PROTOCOL: cell-based or functional assay
MEASURE_NAME: Efficacy (ELK-luciferase assay, relative to wild-type FGF21)

BINDER | REPORTED_RESULT
FGF21 truncation mutant 1-173 (ligand) HPIPDSSPLLQFGGQVRQRYLYTDDAQQTEAHLEIREDGTVGGAADQSPESLLQLKALKPGVIQILGVKTSRFLCQRPDGALYGSLHFDPEACSFRELLLEDGYNVYQSEAHGLPLHLPGNKSPHRDPAPRGPARFLPLPGLPPAPPEPPGILAPQPPDVGSSDPLSMVGPSQ | 96.1%
FGF21 truncation mutant 1-177 (ligand) HPIPDSSPLLQFGGQVRQRYLYTDDAQQTEAHLEIREDGTVGGAADQSPESLLQLKALKPGVIQILGVKTSRFLCQRPDGALYGSLHFDPEACSFRELLLEDGYNVYQSEAHGLPLHLPGNKSPHRDPAPRGPARFLPLPGLPPAPPEPPGILAPQPPDVGSSDPLSMVGPSQGRSP | 112%
FGF21 truncation mutant 1-174 (ligand) HPIPDSSPLLQFGGQVRQRYLYTDDAQQTEAHLEIREDGTVGGAADQSPESLLQLKALKPGVIQILGVKTSRFLCQRPDGALYGSLHFDPEACSFRELLLEDGYNVYQSEAHGLPLHLPGNKSPHRDPAPRGPARFLPLPGLPPAPPEPPGILAPQPPDVGSSDPLSMVGPSQG | 105%
